Recorded values, source patent US7795278B2.

target: recombinantly expressed human PARP-1 enzyme (Homo sapiens)
Sequence (P09874 whole entry): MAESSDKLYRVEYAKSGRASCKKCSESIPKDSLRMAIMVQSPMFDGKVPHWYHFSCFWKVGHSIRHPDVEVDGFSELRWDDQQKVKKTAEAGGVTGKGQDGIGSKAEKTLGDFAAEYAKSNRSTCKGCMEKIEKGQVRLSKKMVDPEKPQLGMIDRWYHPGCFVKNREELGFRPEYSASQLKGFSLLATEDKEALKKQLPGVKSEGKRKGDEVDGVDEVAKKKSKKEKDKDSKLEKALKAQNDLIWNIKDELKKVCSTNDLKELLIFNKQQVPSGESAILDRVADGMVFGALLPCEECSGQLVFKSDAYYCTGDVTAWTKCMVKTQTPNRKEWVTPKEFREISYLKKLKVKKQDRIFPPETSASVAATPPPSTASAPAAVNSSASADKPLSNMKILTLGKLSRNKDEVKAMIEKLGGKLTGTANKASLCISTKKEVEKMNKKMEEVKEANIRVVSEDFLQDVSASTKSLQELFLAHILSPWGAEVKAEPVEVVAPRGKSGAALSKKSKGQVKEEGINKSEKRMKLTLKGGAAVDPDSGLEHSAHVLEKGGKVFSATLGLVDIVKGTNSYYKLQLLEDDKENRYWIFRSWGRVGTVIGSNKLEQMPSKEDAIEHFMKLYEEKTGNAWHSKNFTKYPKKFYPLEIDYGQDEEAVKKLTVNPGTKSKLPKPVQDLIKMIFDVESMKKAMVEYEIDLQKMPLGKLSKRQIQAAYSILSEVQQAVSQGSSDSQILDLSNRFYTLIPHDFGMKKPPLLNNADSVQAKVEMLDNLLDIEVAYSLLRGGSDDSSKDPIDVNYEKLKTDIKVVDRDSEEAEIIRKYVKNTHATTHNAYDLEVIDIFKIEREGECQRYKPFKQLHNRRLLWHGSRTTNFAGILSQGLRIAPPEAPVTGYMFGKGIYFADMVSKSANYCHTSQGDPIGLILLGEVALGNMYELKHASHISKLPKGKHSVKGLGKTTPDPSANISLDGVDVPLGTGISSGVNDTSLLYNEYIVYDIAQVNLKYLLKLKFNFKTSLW
assayMethodText: PARP enzyme assay (half-maximum inhibitor concentration)
conditionsUsed: DNA-activated PARP-1, 200 μM NAD, tritium-labeled NAD incorporation, room temperature, 1 hour, pH 8.0
recordedMetric: IC50 (nM)
Use nM as the unit, but write only the number.

Task item: Kindly indicate its recorded IC50. Item: O=C(NCCN1CCCC1)c1cccc(Nc2c[nH]c(=O)c3c2CCCC3)c1
Reply: 220

Task item: Kindly indicate its recorded IC50. Item: O=c1[nH]cc(-c2ccc(CNCc3ccccn3)o2)c2c1CCCC2
Reply: 1530

Task item: Kindly indicate its recorded IC50. Item: O=C(NCc1ccc([N+](=O)[O-])cc1)c1cncc(-c2c[nH]c(=O)c3c2CCCC3)c1
Reply: 400

Task item: Kindly indicate its recorded IC50. Item: CC(=O)c1cccc(Nc2c(C)[nH]c(=O)c3c2CCCC3)c1
Reply: 90

Task item: Kindly indicate its recorded IC50. Item: O=c1[nH]cc(Nc2nc(-c3ccncc3)cs2)c2c1CCCC2
Reply: 9830
